# target-entity: human CRTH2 (Homo sapiens)
# Construct: expressed in transfected cells
# Sequence (Q9Y5Y4 whole entry): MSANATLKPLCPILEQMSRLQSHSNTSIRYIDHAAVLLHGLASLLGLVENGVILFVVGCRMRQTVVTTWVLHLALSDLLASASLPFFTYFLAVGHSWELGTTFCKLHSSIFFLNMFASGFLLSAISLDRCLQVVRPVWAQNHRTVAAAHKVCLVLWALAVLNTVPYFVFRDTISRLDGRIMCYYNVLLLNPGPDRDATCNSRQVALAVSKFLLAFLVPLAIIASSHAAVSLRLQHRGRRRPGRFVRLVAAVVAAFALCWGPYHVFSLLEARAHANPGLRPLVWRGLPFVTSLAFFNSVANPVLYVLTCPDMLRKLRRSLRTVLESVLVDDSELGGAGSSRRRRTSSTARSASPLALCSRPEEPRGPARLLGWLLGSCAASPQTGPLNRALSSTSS
# test-summary: [35S]GTPγS binding assay (SPA) on membranes from CHO-K1 cells stably expressing human CRTH2, stimulated with 60 nM DHK-PGD2
# Format: biochemical
# test-parameters: potency class symbols; Table 2; read-out: CRTH2 hGTPγS IC50
pIC50: −log10 of the molar value.
outcome-measure: pIC50

Known results for molecules:
INSERT INTO assay_data (molecule, target_entity, outcome_measure, test_value) VALUES
  ('COc1ccc(S(=O)(=O)N(C)Cc2ccc(OCC(=O)O)c(-c3cccc(S(C)(=O)=O)c3)c2)cc1', 'human CRTH2 (Homo sapiens)', 'pIC50', '> 7.00'),
  ('CC(c1ccc(OCC(=O)O)c(-c2cccc(C(F)(F)F)c2)c1)N(C)S(=O)(=O)c1ccc(F)cc1 (stereo not shown)', 'human CRTH2 (Homo sapiens)', 'pIC50', '6.00 to 7.00'),
  ('CN(Cc1cc(F)c(OCC(=O)O)c(-c2cc(F)cc(F)c2)c1)S(=O)(=O)c1ccc(F)cc1', 'human CRTH2 (Homo sapiens)', 'pIC50', '6.00 to 7.00');

Prompt: Find pIC50 (human CRTH2 (Homo sapiens)) for the entry Cc1ccc(S(=O)(=O)N(C)Cc2ccc(OCC(=O)O)c(-c3cccc(C#N)c3)c2)cc1F
Response: > 7.00
